Sourced from paper PMC10458458

Tested on: SK-OV-3
Test Description: NCI-60 screen (SRB)
Type: cell-based, human
Test Conditions: SK-OV-3 (Ovarian Cancer), 10 µM, 48 h; negative = cell death vs time zero
Description: The selected active compounds were screened at NCI, as a part of In Vitro Cell Line Screening Project (IVCLSP), for their effect on cell growth in 60 different cancer cell lines. […] One set of cells was fixed with trichloroacetic acid at time 0 h (Tz), and SRB (sulphorhodamine B) assays were performed to quantify the cells. […]
Property: percent cell growth (%)

compound=CC/N=C1\NC(=O)/C(=C\c2c[nH]c3ncccc23)S1 unit_spec=% test_value=−10.3
compound="Cl.O=C1NC(=NCCc2ccccc2)SC1=Cc1c[nH]c2ncccc12 (mixture of isomers) [DJ4-HCl]" unit_spec=% test_value=2.1
compound=C=CC/N=C1\NC(=O)/C(=C\c2c[nH]c3ncccc23)S1 unit_spec=% test_value=−7.0
compound=O=C1N/C(=N\CCc2ccccc2)S/C1=C/c1c[nH]c2ncccc12 unit_spec=% test_value=27.0
